# Test system: mice bearing PSMA-expressing LNCAP cancer xenografts
# measurement.notes: Biodistribution of 68Ga-labeled compounds
# Format: in vivo
# stated.conditions: 1 h post-injection
property.label: Tumor:kidney ratio
Number only, no unit.

Solved entries:
[
  {
    "molecule": "O=C([O-])CN1CCN(CC(=O)[O-])CCN(CC(=O)NCCCC[C@H](NC(=O)CNC(=O)CCCc2ccc(Cl)cc2)C(=O)NC[C@H]2CC[C@H](C(=O)N[C@@H](Cc3ccc4ccccc4c3)C(=O)NCCCC[C@H](NC(=O)N[C@@H](CCC(=O)O)C(=O)O)C(=O)O)CC2)CCN(CC(=O)[O-])CC1.[68Ga+3] [^68Ga-HTK03055]",
    "property.label": "Tumor:kidney ratio",
    "val": 0.56
  },
  {
    "molecule": "O=C([O-])CN1CCN(CC(=O)[O-])CCN(CC(=O)NCCCC[C@H](NC(=O)CNC(=O)CCc2ccccc2)C(=O)NC[C@H]2CC[C@H](C(=O)N[C@@H](Cc3ccc4ccccc4c3)C(=O)NCCCC[C@H](NC(=O)N[C@@H](CCC(=O)O)C(=O)O)C(=O)O)CC2)CCN(CC(=O)[O-])CC1.[68Ga+3] [^68Ga-HTK03082]",
    "property.label": "Tumor:kidney ratio",
    "val": 0.17
  },
  {
    "molecule": "O=C([O-])CN1CCN(CC(=O)[O-])CCN(CC(=O)NCCCC[C@H](NC(=O)CNC(=O)CCCc2ccccc2)C(=O)NC[C@H]2CC[C@H](C(=O)N[C@@H](Cc3ccc4ccccc4c3)C(=O)NCCCC[C@H](NC(=O)N[C@@H](CCC(=O)O)C(=O)O)C(=O)O)CC2)CCN(CC(=O)[O-])CC1.[68Ga+3] [^68Ga-HTK03056]",
    "property.label": "Tumor:kidney ratio",
    "val": 0.22
  },
  {
    "molecule": "O=C([O-])CN1CCN(CC(=O)[O-])CCN(CC(=O)NCC2CCC(C(=O)NC(Cc3c4ccccc4cc4ccccc34)C(=O)NCCCCC(NC(=O)NC(CCC(=O)O)C(=O)O)C(=O)O)CC2)CCN(CC(=O)[O-])CC1.[68Ga+3] (centres unmarked) [^68Ga-HTK03041]",
    "property.label": "Tumor:kidney ratio",
    "val": 0.14
  }
]

IN: Item under review: O=C([O-])CN1CCN(CC(=O)[O-])CCN(CC(=O)NCC2CCC(C(=O)NC(Cc3ccc4cc5ccccc5cc4c3)C(=O)NCCCCC(NC(=O)NC(CCC(=O)O)C(=O)O)C(=O)O)CC2)CCN(CC(=O)[O-])CC1.[68Ga+3] (centres unmarked) [^68Ga-HTK03027] . Reported Tumor:kidney ratio?
OUT: 0.27

* * *

Known Muscle uptake of a selection of compounds
# Test system: mice bearing PSMA-expressing LNCAP cancer xenografts
# measurement.notes: Biodistribution of 68Ga-labeled compounds
# Assay type: in vivo
# stated.conditions: 1 h post-injection
Please format your answer as a value with the unit trailing.

[
  {
    "compound": "O=C([O-])CN1CCN(CC(=O)[O-])CCN(CC(=O)NCCCC[C@H](NC(=O)CNC(=O)CCCc2ccccc2)C(=O)NC[C@H]2CC[C@H](C(=O)N[C@@H](Cc3ccc4ccccc4c3)C(=O)NCCCC[C@H](NC(=O)N[C@@H](CCC(=O)O)C(=O)O)C(=O)O)CC2)CCN(CC(=O)[O-])CC1.[68Ga+3] [^68Ga-HTK03056]",
    "val": "0.53 ± 0.11 % ID/g"
  },
  {
    "compound": "O=C([O-])CN1CCN(CC(=O)[O-])CCN(CC(=O)NCCCC[C@H](NC(=O)CNC(=O)CCCc2ccc([N+](=O)[O-])cc2)C(=O)NC[C@H]2CC[C@H](C(=O)N[C@@H](Cc3ccc4ccccc4c3)C(=O)NCCCC[C@H](NC(=O)N[C@@H](CCC(=O)O)C(=O)O)C(=O)O)CC2)CCN(CC(=O)[O-])CC1.[68Ga+3] [^68Ga-HTK03089]",
    "val": "0.79 ± 0.06 % ID/g"
  },
  {
    "compound": "O=C([O-])CN1CCN(CC(=O)[O-])CCN(CC(=O)NCC2CCC(C(=O)NC(Cc3c4ccccc4cc4ccccc34)C(=O)NCCCCC(NC(=O)NC(CCC(=O)O)C(=O)O)C(=O)O)CC2)CCN(CC(=O)[O-])CC1.[68Ga+3] (centres unmarked) [^68Ga-HTK03041]",
    "val": "0.75 ± 0.09 % ID/g"
  },
  {
    "compound": "Cc1ccc(CCCC(=O)NCC(=O)N[C@@H](CCCCNC(=O)CN2CCN(CC(=O)[O-])CCN(CC(=O)[O-])CCN(CC(=O)[O-])CC2)C(=O)NC[C@H]2CC[C@H](C(=O)N[C@@H](Cc3ccc4ccccc4c3)C(=O)NCCCC[C@H](NC(=O)N[C@@H](CCC(=O)O)C(=O)O)C(=O)O)CC2)cc1.[68Ga+3] [^68Ga-HTK03090]",
    "val": "1.23 ± 0.15 % ID/g"
  }
]

IN: Lookup: Muscle uptake / mice bearing PSMA-expressing LNCAP cancer xenografts / O=C([O-])CN1CCN(CC(=O)[O-])CCN(CC(=O)NCC2CCC(C(=O)NC(Cc3ccc4ccc5cccc6ccc3c4c56)C(=O)NCCCCC(NC(=O)NC(CCC(=O)O)C(=O)O)C(=O)O)CC2)CCN(CC(=O)[O-])CC1.[68Ga+3] (centres unmarked) [^68Ga-HTK03029]
OUT: 0.63 ± 0.10 % ID/g
